- Tgt: Mu-type opioid receptor (Cavia porcellus)
- Sequence (P97266 whole entry): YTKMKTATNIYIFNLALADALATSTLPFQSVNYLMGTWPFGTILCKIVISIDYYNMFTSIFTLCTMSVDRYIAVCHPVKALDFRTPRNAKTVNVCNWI
- Protocol Details: Inhibitory activity towards Opioid receptor mu 1 using guinea pig ileum (GPI) assay was determined for the compound
- Assay type: tissue-based
Experimental Readout: IC50 (nM)
Give bare numbers, in nM.

Task: What does the data say about its IC50? Entry: NC(=O)[C@@H]1CSSC[C@@H](NC(=O)[C@@H](N)Cc2ccc(O)cc2)C(=O)N[C@@H](Cc2ccccc2)C(=O)N1
Output: 64.7

---

- Tgt: Mu-type opioid receptor (Rattus norvegicus)
- Sequence (P33535 whole entry): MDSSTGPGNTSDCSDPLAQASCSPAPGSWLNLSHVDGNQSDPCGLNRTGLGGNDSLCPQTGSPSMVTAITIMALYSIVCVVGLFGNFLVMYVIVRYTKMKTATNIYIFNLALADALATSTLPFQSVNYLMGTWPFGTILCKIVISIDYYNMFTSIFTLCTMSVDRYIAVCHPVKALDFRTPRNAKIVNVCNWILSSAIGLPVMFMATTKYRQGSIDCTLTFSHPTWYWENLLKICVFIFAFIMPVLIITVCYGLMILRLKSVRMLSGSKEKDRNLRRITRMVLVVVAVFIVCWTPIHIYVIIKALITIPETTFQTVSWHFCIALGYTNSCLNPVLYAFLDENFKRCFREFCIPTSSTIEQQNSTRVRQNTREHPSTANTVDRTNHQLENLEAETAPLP
- Protocol Details: Binding affinity towards Opioid receptor mu 1 in rat brain membrane using [3H]DAGO as radioligand
- Format: cell membranes
Provide the reported Ki of each item.
Answers without a unit are incomplete; give the number and then its unit.

Examples with answers:
{"Compound Structure String": "NC(=O)[C@@H]1CC(=O)NCCC[C@@H](NC(=O)[C@@H](N)Cc2ccc(O)cc2)C(=O)N[C@@H](Cc2ccccc2)C(=O)N1", "Tgt": "Mu-type opioid receptor (Rattus norvegicus)", "Ki": "10.4 nM"}
{"Compound Structure String": "NC(=O)[C@@H]1CSSC[C@@H](NC(=O)[C@@H](N)Cc2ccc(O)cc2)C(=O)N[C@@H](Cc2ccccc2)C(=O)N1", "Tgt": "Mu-type opioid receptor (Rattus norvegicus)", "Ki": "11 nM"}

Task: Record request: Ki value, item NC(=O)[C@@H]1CC(=O)NCCC[C@@H](NC(=O)[C@@H](N)Cc2ccc(O)cc2)C(=O)N[C@H](Cc2ccccc2)C(=O)N1
Output: 3040 nM

Where do these numbers come from? They come from ChEMBL document CHEMBL1123894.
